Assay: Probe fluorescence ratio response to arachidonic acid relative to ADIFAB2
Assay type: binding
Conditions: arachidonic acid; response relative to ADIFAB2
DR/DR AA values, listed per item

{"columns": ["Molecule", "DR/DR AA"],
 "data": [
  ["126M, 72A (protein, listed as Rattus norvegicus, PEPTIDE (1)...(131) wild-type rat intestinal fatty acid binding protein) AFDGTWKVDRNENYEKFMEKMGINVVKRKLGAHDNLKLTITQEGNKFTVKESSNFRNIDVVFELGVDFAYSAADGTELTGTWTMEGNKLVGKFKRVDNGKELIAVREISGNELIQTYTYEGVEAKMIFKKE", 0.32],
  ["34Y, 72A (protein, listed as Rattus norvegicus, PEPTIDE (1)...(131) wild-type rat intestinal fatty acid binding protein) AFDGTWKVDRNENYEKFMEKMGINVVKRKLGAHYNLKLTITQEGNKFTVKESSNFRNIDVVFELGVDFAYSAADGTELTGTWTMEGNKLVGKFKRVDNGKELIAVREISGNELIQTYTYEGVEAKRIFKKE", 1.22]
]}

These data points were gathered from patent US20060257938A1.
